Recorded Inh (PKA) values for a group of compounds are listed next.
- Test system: PRKACA-PRKAR2A interaction (SmBiT-PRKACA / LgBiT-PRKAR2A), protein kinase A
- Set-up: NanoLuc complementation counter-screen in cell extract, PRKACA with PRKAR2A, loss of luminescence, detects NanoLuc interference
- cond: counter-screen for NanoLuc interference; 0.5 h, 20 µM; inhibitor
Counter-ions that a name gives are not always drawn.

- compound: "O=C1[C@H](Cc2ccc(O)cc2)N2C(=O)CCN(C(=O)NCc3ccccc3)[C@H]2CN1Cc1cccc2ccccc12"
  u: "%"
  Inh (PKA): 13.98
- compound: "COCCCC/C(=N\\OCCN)c1ccc(C(F)(F)F)cc1 [UM0133722:02, Fluvoxamine maleate]"
  u: "%"
  Inh (PKA): 2.345
- compound: "O=c1[nH]cnc2c1ncn2[C@H]1CC[C@@H](CO)O1"
  u: "%"
  Inh (PKA): -1.093
- compound: "Cc1ccc(F)c(NC(=O)Nc2ccc(-c3cccc4[nH]nc(N)c34)cc2)c1"
  u: "%"
  Inh (PKA): 45.3

----------
Recorded Inhibition percent values for a group of molecules are listed next.
- system: MeCP2-TBL1 interaction (MeCP2-SmBiT / TBL1-LgBiT) (Mus musculus)
- Construct: expressed in transfected cells; crude lysate used as a cell-free assay
- Sequence (Q9QXE7 166-527): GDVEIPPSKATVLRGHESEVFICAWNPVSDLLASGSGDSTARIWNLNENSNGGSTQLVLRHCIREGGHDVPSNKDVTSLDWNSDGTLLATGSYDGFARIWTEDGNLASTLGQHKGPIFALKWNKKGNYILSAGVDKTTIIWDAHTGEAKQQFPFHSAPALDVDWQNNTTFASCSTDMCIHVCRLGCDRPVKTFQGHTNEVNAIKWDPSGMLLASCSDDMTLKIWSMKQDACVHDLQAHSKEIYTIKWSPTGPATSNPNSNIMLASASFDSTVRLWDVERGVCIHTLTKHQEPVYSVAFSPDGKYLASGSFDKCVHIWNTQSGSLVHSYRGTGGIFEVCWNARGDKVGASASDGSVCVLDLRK
- assay-method-text: MeCP2-TBL1 NanoLuc luciferase complementation assay (cell-free, extracts of transfected HEK293 cells);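 further: each compound tested at 20 µM final concentration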
- Assay type: binding, human
- cond: primary screen of the Asinex library, sheet "Sargen output Asinex library", one well per compound

- molecule: "CCc1nnsc1C(=O)N(CC)[C@H]1CCO[C@@H](c2cccc(-c3cncnc3)c2)C1"
  u: "%"
  Inhibition percent: -3.67
- molecule: "CNC(=O)c1cccc(C2CN(C(=O)c3ccc(OCc4ccccn4)c(OC)c3)CCN2C)c1 (stereo not shown)"
  u: "%"
  Inhibition percent: 4.71
- molecule: "COc1ccc(Cc2cccc(C3CCN(C(=O)Cc4ccc(F)cc4)CC3)n2)cc1"
  u: "%"
  Inhibition percent: 0.65
- molecule: "CC(C)(NC(=O)c1ccccc1)C(=O)N1C2CCC1CC(Cc1ccc3ccncc3c1)C2 (stereo not shown)"
  u: "%"
  Inhibition percent: -1.86

----------
- System: PRKACA-PRKAR2A interaction (SmBiT-PRKACA / LgBiT-PRKAR2A), protein kinase A
- Design: NanoLuc complementation counter-screen in cell extract, PRKACA with PRKAR2A, loss of luminescence, detects NanoLuc interference
- cond: counter-screen for NanoLuc interference; 0.5 h, 20 µM; inhibitor
Recorded Inh (PKA) values for a group of compounds are listed next.
quantity: Inh (PKA) (%)

- input-smiles: "FC(F)c1nc2ccccc2n1-c1nc(N2CCOCC2)nc(N2CCOCC2)n1"
  system: "PRKACA-PRKAR2A interaction (SmBiT-PRKACA / LgBiT-PRKAR2A), protein kinase A"
  quantity: "Inh (PKA)"
  u: "%"
  observed-result: 3.548
- input-smiles: "Nc1nc(Nc2ccc(S(N)(=O)=O)cc2)nn1C(=O)c1c(F)cccc1F"
  system: "PRKACA-PRKAR2A interaction (SmBiT-PRKACA / LgBiT-PRKAR2A), protein kinase A"
  quantity: "Inh (PKA)"
  u: "%"
  observed-result: 15.42
- input-smiles: "CCN(CCCOc1ccc2c(Nc3cc(CC(=O)Nc4cccc(F)c4)[nH]n3)ncnc2c1)CCOP(=O)(O)O"
  system: "PRKACA-PRKAR2A interaction (SmBiT-PRKACA / LgBiT-PRKAR2A), protein kinase A"
  quantity: "Inh (PKA)"
  u: "%"
  observed-result: 8.114
- input-smiles: "O=C1Cc2c([nH]c3ccc(Br)cc23)-c2ccccc2N1"
  system: "PRKACA-PRKAR2A interaction (SmBiT-PRKACA / LgBiT-PRKAR2A), protein kinase A"
  quantity: "Inh (PKA)"
  u: "%"
  observed-result: 40.47

----------
- System: PRKACA-PRKAR2A interaction (SmBiT-PRKACA / LgBiT-PRKAR2A), protein kinase A
- Set-up: NanoLuc complementation counter-screen in cell extract, PRKACA with PRKAR2A, loss of luminescence, detects NanoLuc interference
- cond: counter-screen for NanoLuc interference; 0.5 h, 20 µM; inhibitor
Recorded Inh (PKA) values for a group of compounds are listed next.
quantity: Inh (PKA) (%)

- compound: "CN1CCN(c2nc(C3=C(c4c[nH]c5ccccc45)C(=O)NC3=O)c3ccccc3n2)CC1"
  quantity: "Inh (PKA)"
  observed-result: 65.03
- compound: "CN[C@@H](C)C(=O)N[C@H](C(=O)N1CCC[C@H]1c1nc(C(=O)c2ccc(F)cc2)cs1)C1CCCCC1"
  quantity: "Inh (PKA)"
  observed-result: 0.904
- compound: "CC(C)(C)n1nc(-c2ccc(Cl)cc2)c2c(N)ncnc21"
  quantity: "Inh (PKA)"
  observed-result: 33.15
- compound: "COc1cc(N2CCC(N)CC2)ccc1Nc1ncc(Cl)c(-c2c[nH]c3ccccc23)n1"
  quantity: "Inh (PKA)"
  observed-result: 51
- compound: "CNCC(O)c1ccc(O)cc1 (centres unmarked) [UM0142702:01, Synephrine]"
  quantity: "Inh (PKA)"
  observed-result: 1.654
- compound: "COC(=O)C[C@H](NC(=O)[C@H](C)NC(=O)[C@@H](NC(=O)[C@H](Cc1ccc(O)cc1)NC(=O)OCc1ccccc1)C(C)C)C(=O)CF"
  quantity: "Inh (PKA)"
  observed-result: 2.926
- compound: "CCCCCOC(=O)Nc1nc(=O)n([C@@H]2O[C@H](C)[C@@H](O)[C@H]2O)cc1F"
  quantity: "Inh (PKA)"
  observed-result: 3.507
- compound: "COCC1(CO)C(=O)C2CCN1CC2 (centres unmarked)"
  quantity: "Inh (PKA)"
  observed-result: 2.921
- compound: "COc1cc2c(NC3CCN(CC4CCCCC4)CC3)nc(N3CCCN(C(C)C)CC3)nc2cc1OCCCN1CCCCC1"
  quantity: "Inh (PKA)"
  observed-result: 0.9058
- compound: "CCCCCCCCCCC[C@@H](C[C@@H]1OC(=O)[C@H]1CCCCCC)OC(=O)[C@H](CC(C)C)NC=O"
  quantity: "Inh (PKA)"
  observed-result: -0.3481
- compound: "CCOc1cc([C@@H](CS(C)(=O)=O)N2C(=O)c3cccc(NC(C)=O)c3C2=O)ccc1OC"
  quantity: "Inh (PKA)"
  observed-result: 1.324
- compound: "O=C1c2c(O)cc(O)cc2O[C@H](c2cc(O)c(O)c(O)c2)[C@H]1O [UM0142858:01, Dihydromyricetin]"
  quantity: "Inh (PKA)"
  observed-result: 4.571
- compound: "S=C(S)N1CCCC1 [UM0120164:03, Pyrrolidinedithiocarbamate ammonium]"
  quantity: "Inh (PKA)"
  observed-result: 13.75
- compound: "C[C@H](NC(=O)c1sccc1OCc1ccc(Cl)cc1)c1ccccc1"
  quantity: "Inh (PKA)"
  observed-result: 58.85

----------
- system: MeCP2-TBL1 interaction (MeCP2-SmBiT / TBL1-LgBiT) (Mus musculus, UniProt Q9QXE7)
- Construct: expressed in transfected cells; crude lysate used as a cell-free assay
- assay-method-text: MeCP2-TBL1 NanoLuc luciferase complementation assay (cell-free, extracts of transfected HEK293 cells);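 further: each compound tested at 20 µM final concentration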
- Type: binding, human
- cond: primary screen of Asinex library, single well per compound
Recorded Inhibition percent values for a group of compounds are listed next.
quantity: Inhibition percent

- compound: "Cc1cc(Oc2ccccc2F)nc(C2CCCCN2C(=O)c2ccnc(-c3cncnc3)c2)n1 (centres unmarked)"
  observed-result: 0.18
- compound: "COc1cccc([C@@H]2C[C@]3(C)NC(=O)CCCC[C@@H]3N2CC(=O)Nc2cc(F)ccc2C)c1"
  observed-result: -1.41
- compound: "CC(C)CCC[C@@]1(C)Oc2cc(O)ccc2[C@H]2OCC3(CCNCC3)C[C@@H]21"
  observed-result: 19.22
- compound: "CC1(C)Oc2ccc(Cl)cc2[C@H]2O[C@H]3CCN(C(=O)c4ccccc4OCC(=O)O)C[C@H]3C[C@@H]21"
  observed-result: 1.43
- compound: "Cc1n[nH]c(C)c1NC(=O)CN1C[C@@H](c2cc(F)cc(F)c2)[C@@]2(CCCCC(=O)N2)C1"
  observed-result: -0.00541
- compound: "CN(C)CCOc1ccc(C(=O)N(C)CC2(O)CCCN(c3ccnc4ccncc34)C2)cc1 (centres unmarked)"
  observed-result: -4.15
- compound: "Cc1cc(Oc2ccc(F)cc2)nc(C2CCCCN2C(=O)c2cccc(-n3cnnc3)c2)n1 (centres unmarked)"
  observed-result: -1.56
- compound: "O=C(NCCc1ccccc1)[C@@H]1[C@H](O)[C@@H](c2ccc(F)cc2)CN1C(=O)Cc1c[nH]c2ccccc12"
  observed-result: 2.61
- compound: "Cc1nn(C)cc1C(=O)N1CCCCC1c1ncccc1C(=O)NCc1ccccc1 (centres unmarked)"
  observed-result: -0.10
- compound: "Cn1nccc1CN[C@@H]1C[C@@H](Oc2ccccc2)[C@H](O)[C@H]1N1CCN(c2ccccc2)CC1"
  observed-result: -0.36
- compound: "Cc1cnn(CC(=O)N2CCC3(CC2)Oc2ccc(Cl)cc2[C@H]2OCCC[C@@H]23)c1"
  observed-result: 5.31
- compound: "COCCN1C(=O)C[C@@H](C(=O)NCc2ccccc2COC)[C@@H]1c1ccccc1"
  observed-result: -0.68
- compound: "COc1cccc([C@@H]2C[C@]3(C)NC(=O)CCCC[C@@H]3N2CC(=O)Nc2ccc(N3CCCC3)cc2)c1"
  observed-result: -1.03
- compound: "C[C@]12C[C@@H](c3cccc(C(F)(F)F)c3)N(C(=O)CCc3nc4ccccc4[nH]3)[C@H]1CCCCC(=O)N2"
  observed-result: -2.28
- compound: "COc1ccccc1Oc1cccc(C2CCN(C(=O)c3ccc(-c4cncnc4)nc3)CC2)n1"
  observed-result: -2.43
- compound: "CC1(C)Oc2ccccc2[C@H]2OCC3(CCN(C(=O)c4ccnc(N5CCCC5)c4)CC3)C[C@@H]21"
  observed-result: 0.33
- compound: "C[C@]12C[C@@H](c3ccccc3)N(CC(=O)Nc3ccc4c(c3)OCCO4)[C@H]1CCCCCN2"
  observed-result: -2.26
- compound: "C[C@@H]1CC[C@@H]2[C@@H](C1)c1c(ccc(C(=O)NCC(C)(C)CN3CCCC3)c1O)OC2(C)C"
  observed-result: 1.80
- compound: "COc1ccc2c(c1)OC(C)(C)[C@H]1CC3(CCN(C(=O)CCn4ccnc4)CC3)CO[C@H]21"
  observed-result: -0.71
- compound: "CC(C)(C)c1ccc2c(c1)N(CC(=O)N1CCCCC1CCNC(=O)c1ccccc1)C(=O)CO2 (centres unmarked)"
  observed-result: -2.18
- compound: "C[C@]12C[C@@H](Cc3ccccc3)N(C(=O)CC3CCN(c4ncccn4)CC3)[C@H]1CCCC(=O)N2"
  observed-result: -0.41
- compound: "Cc1ccc(C(=O)N2CCC3(CC2)COC(Cc2cccc(F)c2)C3)cc1NCc1ccccn1 (centres unmarked)"
  observed-result: 0.11
- compound: "Cc1ncc(C(=O)N2CCOCC2)c(C2CCCCN2C(=O)c2nccc3ccccc23)n1 (centres unmarked)"
  observed-result: -0.64
- compound: "CC(=O)NCCCCCC(=O)N1CC[C@H]2O[C@H]3c4cc(C(C)(C)C)ccc4OC(C)(C)[C@@H]3C[C@@H]21"
  observed-result: 3.20
- compound: "COc1cccc(C2CN(Cc3ccccc3)C(=O)C23CCN(Cc2ccccc2C(=O)O)CC3)c1 (centres unmarked)"
  observed-result: 5.00
- compound: "CC(=O)N[C@@]12CCN(CC(=O)Nc3cc(C)ccc3F)C[C@@H]1[C@@H](c1ccccc1)N(C(C)=O)C2"
  observed-result: -3.87
- compound: "CC(=O)N1CCC(Cc2ccc(F)cc2)(C(=O)N2CCCC(Cc3cccc(C)n3)C2)CC1 (centres unmarked)"
  observed-result: -2.67
- compound: "CC(=O)N[C@H]1C[C@@H](C(=O)N(C)C)N(CC(=O)Nc2ccc3c(c2)OCCO3)[C@H]1c1ccccc1"
  observed-result: -1.52
- compound: "CC(=O)N[C@H](CC(N)=O)C(=O)N1CC[C@@H]2O[C@@H]3c4ccccc4OC(C)(C)[C@H]3C[C@@H]2C1"
  observed-result: 0.54
